Literature survey of pIC50 (system: UniProt O75116).
pIC50: −log10 of the molar value.

Solved entries:
>>> print(df.to_string())
                                   compound  outcome_measure           val
0  COc1cccc(CNC(=O)c2ncn3cc(-c4cn[nH]c4F)ccc23)c1            pIC50        ≥ 7.30
1  O=C(NC1CC2(C1)CC(c1n[nH]c(=O)c3ccccc13)C2)c1cnn2ccc(N3CCOCC3)cc12 (centres unmarked)            pIC50  7.82 to 8.29
2  O=C1C(NCCc2ccccc2)CCN1c1ccc(-c2n[nH]c(=O)c3ccccc23)cc1 (centres unmarked)            pIC50  5.70 to 6.30
3  CCc1cc(N2CCN(Cc3cccc(F)c3)C2=O)ccc1-c1cn[nH]c1            pIC50  7.70 to 8.68
4  CCN1CCC[C@H]1CNC(=O)c1cccc(CNC(=O)c2ccc(-c3cn[nH]c3)c(OC)c2)c1            pIC50          9.07

For each of the items listed, what is its pIC50?
1. O=C(Nc1ccc2c(c1)OCc1cnccc1-2)c1cscn1
2. Cn1cc(C(=O)Nc2cccc(-n3nc(Nc4ccc5[nH]ncc5c4Cl)c4ccccc43)c2)cn1
3. NC(=O)c1c(O[C@H]2C[C@@]3(C[C@H](NC(=O)c4cnn5cc(OCC(F)F)ccc45)C3)C2)nn2ccccc12 (some centres unmarked)

1. 5.84
2. > 6.52
3. 6.93
